The origin of these recorded values is ChEMBL document CHEMBL5705900.

System: BaF3
Experiment: Antiproliferative activity against mouse BaF3 cells harboring CD74-ROS1 G2032R mutant assessed as reduction in cell viability incubated for 72 hrs by CellTiter-Glo assay
Format: functional, cell-based
Settings: BaF3, 72 h

MOLECULE	RELATION_QUALIFIER	IC50 / µM
CCc1cc2c(cc1N1CCC(N3CCOCC3)CC1)C(C)(C)c1[nH]c3cc(C#N)ccc3c1C2=O	>	2
COc1cc2nccc(Oc3ccc(NC(=O)C4(C(=O)Nc5ccc(F)cc5)CC4)cc3)c2cc1OC [CABOZANTINIB]	=	0.0013
COc1cc2c(Oc3ccc(NC(=O)C4(C(=O)Nc5ccc(F)cc5)CC4)cc3F)ccnc2cc1OCCCN1CCOCC1	=	0.069
Cc1cc(Nc2ncc(Cl)c(Nc3ccccc3S(=O)(=O)C(C)C)n2)c(OC(C)C)cc1C1CCNCC1	>	2
C[C@@H](Oc1cc(-c2cnn(C3CCNCC3)c2)cnc1N)c1c(Cl)ccc(F)c1Cl	>	2

* * *

Target: Proto-oncogene tyrosine-protein kinase ROS (Homo sapiens, UniProt P08922, L2026M)
Assay: Binding affinity to recombinant human ROS1 L2026M mutant assessed as inhibition constant in presence of ATP by microfluidic mobility shift assay
pKi: −log10 of the molar value.

SMILES_RECORD	pKi
CCc1cc2c(cc1N1CCC(N3CCOCC3)CC1)C(C)(C)c1[nH]c3cc(C#N)ccc3c1C2=O	5.70

* * *

Target: SLC34A2-ROS1 (Homo sapiens)
Experiment: Inhibition of SLC34A2-ROS1 fusion protein expressed in human HCC78 cells assessed as inhibition of phosphorylated ROS1 incubated for 1 hr by ELISA analysis

SMILES_RECORD	IC50
CCc1cc2c(cc1N1CCC(N3CCOCC3)CC1)C(C)(C)c1[nH]c3cc(C#N)ccc3c1C2=O	> 1 µM

* * *

Target: Golgi-associated PDZ and coiled-coil motif-containing protein/Proto-oncogene tyrosine-protein kinase ROS (Mus musculus, UniProt Q78DX7)
Sequence (Q78DX7 whole entry, other chains not shown, the tested form may be a part, canonical isoform): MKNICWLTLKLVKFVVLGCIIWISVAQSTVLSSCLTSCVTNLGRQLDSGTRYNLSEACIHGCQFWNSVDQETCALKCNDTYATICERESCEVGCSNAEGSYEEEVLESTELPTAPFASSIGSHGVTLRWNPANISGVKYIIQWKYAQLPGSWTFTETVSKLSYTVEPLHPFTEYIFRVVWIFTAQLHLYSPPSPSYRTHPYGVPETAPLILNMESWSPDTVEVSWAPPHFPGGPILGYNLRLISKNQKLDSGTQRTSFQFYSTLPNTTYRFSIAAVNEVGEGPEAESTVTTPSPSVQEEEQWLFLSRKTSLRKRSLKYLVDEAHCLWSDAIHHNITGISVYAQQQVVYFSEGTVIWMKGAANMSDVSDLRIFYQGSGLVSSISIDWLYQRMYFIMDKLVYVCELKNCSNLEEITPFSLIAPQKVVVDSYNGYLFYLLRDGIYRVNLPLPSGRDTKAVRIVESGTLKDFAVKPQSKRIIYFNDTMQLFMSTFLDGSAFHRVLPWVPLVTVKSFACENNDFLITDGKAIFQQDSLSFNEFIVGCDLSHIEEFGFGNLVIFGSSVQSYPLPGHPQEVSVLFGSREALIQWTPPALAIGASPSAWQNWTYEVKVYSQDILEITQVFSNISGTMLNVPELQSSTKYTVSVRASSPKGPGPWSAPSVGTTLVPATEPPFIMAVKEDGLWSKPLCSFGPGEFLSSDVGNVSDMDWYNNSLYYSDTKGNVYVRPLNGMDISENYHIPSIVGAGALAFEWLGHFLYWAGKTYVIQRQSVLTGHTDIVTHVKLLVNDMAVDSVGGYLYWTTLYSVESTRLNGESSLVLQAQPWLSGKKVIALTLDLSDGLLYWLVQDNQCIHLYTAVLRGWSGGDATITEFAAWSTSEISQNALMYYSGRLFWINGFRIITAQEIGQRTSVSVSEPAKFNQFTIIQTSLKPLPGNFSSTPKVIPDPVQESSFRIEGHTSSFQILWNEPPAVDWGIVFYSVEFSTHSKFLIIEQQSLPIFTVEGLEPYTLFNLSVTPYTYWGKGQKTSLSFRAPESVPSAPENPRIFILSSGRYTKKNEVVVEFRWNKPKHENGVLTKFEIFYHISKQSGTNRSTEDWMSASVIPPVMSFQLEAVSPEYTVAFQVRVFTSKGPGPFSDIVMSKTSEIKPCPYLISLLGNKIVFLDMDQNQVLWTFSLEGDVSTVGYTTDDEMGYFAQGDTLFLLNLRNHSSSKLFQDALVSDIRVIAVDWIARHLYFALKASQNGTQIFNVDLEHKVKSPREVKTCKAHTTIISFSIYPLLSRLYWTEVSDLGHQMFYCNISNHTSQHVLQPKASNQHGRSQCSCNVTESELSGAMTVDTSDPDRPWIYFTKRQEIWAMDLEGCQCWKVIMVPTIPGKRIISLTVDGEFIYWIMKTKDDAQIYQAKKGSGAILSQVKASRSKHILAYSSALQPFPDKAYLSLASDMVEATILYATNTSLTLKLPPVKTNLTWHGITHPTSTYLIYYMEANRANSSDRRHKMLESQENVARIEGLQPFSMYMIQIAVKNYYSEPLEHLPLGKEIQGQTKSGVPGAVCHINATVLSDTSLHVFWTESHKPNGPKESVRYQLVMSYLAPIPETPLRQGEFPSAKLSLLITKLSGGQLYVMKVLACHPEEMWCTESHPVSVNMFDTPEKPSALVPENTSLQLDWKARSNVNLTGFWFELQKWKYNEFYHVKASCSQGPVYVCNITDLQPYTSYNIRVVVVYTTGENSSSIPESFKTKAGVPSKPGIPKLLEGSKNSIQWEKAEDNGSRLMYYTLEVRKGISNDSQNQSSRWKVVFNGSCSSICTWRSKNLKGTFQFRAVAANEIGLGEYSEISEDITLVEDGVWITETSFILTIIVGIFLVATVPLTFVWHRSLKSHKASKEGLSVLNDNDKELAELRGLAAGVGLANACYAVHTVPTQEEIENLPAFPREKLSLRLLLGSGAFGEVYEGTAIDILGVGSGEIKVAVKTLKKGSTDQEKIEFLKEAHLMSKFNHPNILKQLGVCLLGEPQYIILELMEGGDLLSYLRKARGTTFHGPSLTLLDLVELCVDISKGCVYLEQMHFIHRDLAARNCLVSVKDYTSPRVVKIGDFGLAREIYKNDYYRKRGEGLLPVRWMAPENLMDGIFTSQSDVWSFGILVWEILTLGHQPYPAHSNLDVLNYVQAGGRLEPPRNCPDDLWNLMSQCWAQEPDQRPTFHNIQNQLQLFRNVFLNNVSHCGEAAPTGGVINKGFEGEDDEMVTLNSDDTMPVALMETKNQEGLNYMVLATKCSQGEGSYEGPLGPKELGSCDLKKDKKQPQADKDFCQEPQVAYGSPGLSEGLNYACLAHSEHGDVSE
Assay: Inhibition of FIG-ROS1 short isoform fusion protein expressed in mouse NIH3T3 cells assessed as inhibition of phosphorylated ROS1 incubated for 1 hr by ELISA analysis
Format: cell-based
pIC50: −log10 of the molar value.
Quick reference for pIC50 among some molecules
MEASURED_METRIC: pIC50

SMILES_RECORD	MEASURED_METRIC	RELATION_QUALIFIER	REPORTED_MEASUREMENT
Cc1cc(Nc2ncc(Cl)c(Nc3ccccc3S(=O)(=O)C(C)C)n2)c(OC(C)C)cc1C1CCNCC1	pIC50	=	6.31
C[C@@H](Oc1cc(-c2cnn(C3CCNCC3)c2)cnc1N)c1c(Cl)ccc(F)c1Cl	pIC50	=	7.22
CCc1cc2c(cc1N1CCC(N3CCOCC3)CC1)C(C)(C)c1[nH]c3cc(C#N)ccc3c1C2=O	pIC50	<	5.30
COc1cc2c(Oc3ccc(NC(=O)C4(C(=O)Nc5ccc(F)cc5)CC4)cc3F)ccnc2cc1OCCCN1CCOCC1	pIC50	=	8.21

* * *

System: Proto-oncogene tyrosine-protein kinase ROS (Homo sapiens), P08922 [G2032R]
Sequence (P08922 whole entry G2032R): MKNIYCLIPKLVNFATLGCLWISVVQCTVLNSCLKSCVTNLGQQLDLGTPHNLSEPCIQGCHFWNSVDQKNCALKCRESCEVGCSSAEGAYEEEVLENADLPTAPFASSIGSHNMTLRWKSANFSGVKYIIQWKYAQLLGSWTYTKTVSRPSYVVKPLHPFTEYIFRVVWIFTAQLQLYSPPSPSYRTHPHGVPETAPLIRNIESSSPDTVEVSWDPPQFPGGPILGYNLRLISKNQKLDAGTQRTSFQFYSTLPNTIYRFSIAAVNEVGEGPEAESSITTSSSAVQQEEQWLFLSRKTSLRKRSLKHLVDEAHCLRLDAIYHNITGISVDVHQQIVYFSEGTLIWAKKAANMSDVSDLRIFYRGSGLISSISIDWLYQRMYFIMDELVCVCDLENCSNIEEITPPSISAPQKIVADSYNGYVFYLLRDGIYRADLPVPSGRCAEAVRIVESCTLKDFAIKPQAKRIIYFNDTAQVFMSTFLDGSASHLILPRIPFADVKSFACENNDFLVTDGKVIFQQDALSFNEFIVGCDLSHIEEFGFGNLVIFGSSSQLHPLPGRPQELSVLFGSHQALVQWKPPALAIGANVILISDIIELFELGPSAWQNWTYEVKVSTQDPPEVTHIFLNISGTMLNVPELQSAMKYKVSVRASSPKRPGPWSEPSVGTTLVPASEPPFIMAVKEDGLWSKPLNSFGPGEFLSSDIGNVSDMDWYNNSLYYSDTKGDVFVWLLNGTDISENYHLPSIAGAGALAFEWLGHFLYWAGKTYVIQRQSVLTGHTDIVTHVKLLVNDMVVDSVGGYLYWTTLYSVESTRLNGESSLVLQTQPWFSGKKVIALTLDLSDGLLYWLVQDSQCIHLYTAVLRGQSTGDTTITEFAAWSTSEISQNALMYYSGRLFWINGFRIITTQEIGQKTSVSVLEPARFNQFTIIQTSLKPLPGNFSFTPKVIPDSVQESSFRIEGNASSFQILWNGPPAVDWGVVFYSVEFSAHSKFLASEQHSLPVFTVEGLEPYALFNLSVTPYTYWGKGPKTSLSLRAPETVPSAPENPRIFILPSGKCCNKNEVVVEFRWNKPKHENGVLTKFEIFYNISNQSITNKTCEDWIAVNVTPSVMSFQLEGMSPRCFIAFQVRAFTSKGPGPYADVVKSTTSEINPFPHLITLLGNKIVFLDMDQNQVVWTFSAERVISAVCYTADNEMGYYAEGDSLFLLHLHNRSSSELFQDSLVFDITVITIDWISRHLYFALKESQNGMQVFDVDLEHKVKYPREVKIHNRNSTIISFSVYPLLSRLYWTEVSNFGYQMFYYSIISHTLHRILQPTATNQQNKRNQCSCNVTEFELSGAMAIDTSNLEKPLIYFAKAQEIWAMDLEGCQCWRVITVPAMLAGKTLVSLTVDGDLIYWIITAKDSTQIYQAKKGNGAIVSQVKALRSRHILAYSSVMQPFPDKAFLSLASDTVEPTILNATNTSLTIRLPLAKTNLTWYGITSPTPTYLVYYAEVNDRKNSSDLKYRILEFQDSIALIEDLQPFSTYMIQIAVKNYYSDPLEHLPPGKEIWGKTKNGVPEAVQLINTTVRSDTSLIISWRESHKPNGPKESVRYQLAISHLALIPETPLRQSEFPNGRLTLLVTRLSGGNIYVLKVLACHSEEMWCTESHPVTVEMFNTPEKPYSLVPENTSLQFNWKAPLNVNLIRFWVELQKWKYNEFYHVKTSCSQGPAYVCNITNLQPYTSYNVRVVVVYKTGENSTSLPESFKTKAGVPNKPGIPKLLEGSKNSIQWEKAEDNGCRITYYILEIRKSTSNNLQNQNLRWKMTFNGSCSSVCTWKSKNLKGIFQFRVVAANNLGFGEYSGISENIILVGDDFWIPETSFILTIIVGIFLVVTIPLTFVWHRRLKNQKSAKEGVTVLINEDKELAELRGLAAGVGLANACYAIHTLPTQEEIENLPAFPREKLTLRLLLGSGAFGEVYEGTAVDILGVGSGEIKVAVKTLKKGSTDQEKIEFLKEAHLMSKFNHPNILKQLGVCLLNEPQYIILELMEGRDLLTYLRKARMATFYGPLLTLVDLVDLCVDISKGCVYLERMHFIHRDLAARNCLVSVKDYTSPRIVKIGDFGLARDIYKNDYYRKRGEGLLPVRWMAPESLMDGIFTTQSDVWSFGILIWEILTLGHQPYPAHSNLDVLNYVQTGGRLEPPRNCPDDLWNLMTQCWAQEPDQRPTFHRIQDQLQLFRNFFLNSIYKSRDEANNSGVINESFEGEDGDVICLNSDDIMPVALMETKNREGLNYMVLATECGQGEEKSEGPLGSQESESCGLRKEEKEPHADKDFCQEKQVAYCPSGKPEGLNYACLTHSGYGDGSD
Assay: Inhibition of recombinant human ROS1 G2032R mutant in presence of ATP by microfluidic mobility shift assay
Conditions: dose 0.001-1000 nM

SMILES_RECORD	inhibition
Cc1cc(Nc2ncc(Cl)c(Nc3ccccc3S(=O)(=O)C(C)C)n2)c(OC(C)C)cc1C1CCNCC1	Dose-Dependent Effect
C[C@@H](Oc1cc(-c2cnn(C3CCNCC3)c2)cnc1N)c1c(Cl)ccc(F)c1Cl	Dose-Dependent Effect
COc1cc2c(Oc3ccc(NC(=O)C4(C(=O)Nc5ccc(F)cc5)CC4)cc3F)ccnc2cc1OCCCN1CCOCC1	Dose-Dependent Effect
